TEST_DESCRIPTION: NCI Yeast Anticancer Drug Screen. Data for the sgs1 mgt1 strain (AID 161);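 note: 0% = growth of cultures given vehicle only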
TEST_PARAMETERS: S. cerevisiae sgs1 mgt1 strain, at 50.0 µM (retest, dose inferred, filed as 5.0)
About 79,000 compounds went through this panel and 15% of them were active in at least one assay; those are over-represented in the sample as a whole. The source made the active and inactive calls. Cut-off read from the data, not from the text of the source: active = growth inhibition above about 70%; inactive = the rest.
Field 'call' accepts 1 (active), 0 (inactive)

COMPOUND	ASSIGNED_LABEL
O=P(O/C(=C\c1ccccc1)c1ccccc1)(c1ccccc1)c1ccccc1	1
O=C1c2ccccc2[Se](=O)N1c1ccccc1 (stereo unspecified)	1
O=C(O)c1cc([N+](=O)[O-])c(Cl)c([N+](=O)[O-])c1Cl	1
S=c1[nH]c2ccccc2s1	0
O=P1(Oc2ccccc2)C(c2ccccc2)C(c2ccccc2)=NN1c1ccccc1 (stereo unspecified)	0
O=Cc1ccc(C(F)(F)F)cc1.[C-]#[O+].[C-]#[O+].[C-]#[O+].[Cr]	1
COC(=O)C(CCCN=C(N)N[N+](=O)[O-])NC(=O)c1ccc2c(c1O)C(=O)c1ccccc1C2=O (stereo unspecified)	0
c1ccc2c(c1)CCc1c-2[nH]c2ccccc12	1
Nc1ccccc1C(=O)OCCc1ccccc1	1
Cc1ccc([C@H]2N[C@@H]2c2ccccn2)cc1	0

Field: next compound
Input: Recorded test outcome, item CCOP(=O)(OCC)Oc1cc(C)c(SC#N)c(C)c1
Output: 0
